Could you please report measured inhibition at 1 µM for the items listed next?
Target: acyl CoA-cholesterol-acyltransferase (ACAT) (Rattus norvegicus, UniProt Q7TQM4)
Construct: a microsome fraction prepared from a rat liver; from tissue; host or cells: rat liver microsome fraction
Test: ACAT inhibition test (cholesteryl oleate formed from [1-14C]oleoylCoA, rat liver microsome fraction)
Assay type: biochemical
Conditions: 10^-6 M test drug, 37° C., 4 minutes, relative to control without test compound
Answers are plain numbers, in %.

# annotated cases, reported inhibition at 1 µM shown
CCCCCCCC/C=C\CCCCCCCC(=O)NC1CCCN(C(=O)CCNC(=O)C2OC(C)(C)OCC2(C)C)C1 (stereo not shown)    75.7
CCCCCCCC/C=C\CCCCCCCC(=O)Nc1ccccc1OC(=O)CCNC(=O)C1OC(C)(C)OCC1(C)C (stereo not shown)    79.6
CCCCCCCC/C=C\CCCCCCCC(=O)NC[C@@H]1CCCN1C(=O)CCNC(=O)C(O)C(C)(C)CO (stereo partly shown)    65.7
CC/C=C\C/C=C\C/C=C\CCCCCCCC(=O)Nc1ccccc1NC(=O)CCNC(=O)C1OC(C)(C)OCC1(C)C (stereo not shown)    56
CCCCCCCC/C=C\CCCCCCCC(=O)N1CCCC(NC(=O)CCNC(=O)C2OC(C)(C)OCC2(C)C)C1 (single isomer, unassigned)    61.1

Provide the reported inhibition at 1 µM of each entry below, same order.
1. CCCCCCCCCCC(C)C(=O)N1CCN(C(=O)CCNC(=O)C2OC(C)(C)OCC2(C)C)CC1 (stereo not shown)
2. CCCCCCCC/C=C\CCCCCCCC(=O)N1CCN(C(=O)CCNC(=O)C(O)C(C)(C)CO)CC1 (stereo not shown)

*A*
53.7
18.9

###

Biological target: acyl CoA-cholesterol-acyltransferase (ACAT) (Rattus norvegicus, UniProt Q7TQM4)
Construct: a microsome fraction prepared from a rat liver; from tissue; host or cells: rat liver microsome fraction
Sequence (Q7TQM4 1-524): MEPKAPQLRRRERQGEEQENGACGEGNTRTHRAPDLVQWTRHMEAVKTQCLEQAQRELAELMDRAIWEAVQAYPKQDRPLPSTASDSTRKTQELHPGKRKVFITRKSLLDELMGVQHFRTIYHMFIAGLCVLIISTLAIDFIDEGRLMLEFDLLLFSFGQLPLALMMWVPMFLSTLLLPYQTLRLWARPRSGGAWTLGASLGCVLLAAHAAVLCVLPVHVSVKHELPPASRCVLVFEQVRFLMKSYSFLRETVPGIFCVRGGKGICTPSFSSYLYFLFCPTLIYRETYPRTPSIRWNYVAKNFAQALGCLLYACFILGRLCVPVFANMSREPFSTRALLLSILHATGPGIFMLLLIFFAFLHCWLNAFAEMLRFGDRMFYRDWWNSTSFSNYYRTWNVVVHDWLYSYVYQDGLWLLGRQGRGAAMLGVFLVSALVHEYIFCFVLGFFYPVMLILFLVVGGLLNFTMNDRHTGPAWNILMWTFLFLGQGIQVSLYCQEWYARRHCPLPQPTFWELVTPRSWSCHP
Test: ACAT inhibition test (cholesteryl oleate formed from [1-14C]oleoylCoA, rat liver microsome fraction)
Type: biochemical
Conditions: 10^-6 M test drug, 37° C., 4 minutes, relative to control without test compound
measurement kind: inhibition at 1 µM (%)
One number for each entry, in %.

# annotated cases, reported inhibition at 1 µM shown
CCCCC/C=C\C/C=C\CCCCCCCC(=O)Nc1ccccc1NC(=O)CCNC(=O)C1OC(C)(C)OCC1(C)C (centres unmarked)    79.8
CCCCC/C=C\C/C=C\CCCCCCCC(=O)Nc1cccc(NC(=O)CCNC(=O)C2OC(C)(C)OCC2(C)C)c1 (centres unmarked)    51.8
CCCCCCCC/C=C\CCCCCCCC(=O)N1CCCN(C(=O)CCNC(=O)C(OC(C)=O)C(C)(C)COC(C)=O)CC1 (centres unmarked)    62.6
CCCCCCCC/C=C\CCCCCCCC(=O)Nc1ccccc1NC(=O)CCNC(=O)C(OC(C)=O)C(C)(C)COC(C)=O (centres unmarked)    64.8
CCCCCCCCC=CCCCCCCCNC(=O)N1CCN(C(=O)CCNC(=O)C2OC(C)(C)OCC2(C)C)CC1 (centres unmarked)    84.3
CCCCCCCC/C=C\CCCCCCCC(=O)NC1CCCN(C(=O)CCNC(=O)C(O)C(C)(C)CO)C1 (centres unmarked)    58.3
CCCCCCCC/C=C\CCCCCCCC(=O)N1CCCN(C(=O)CCNC(=O)C(O)C(C)(C)CO)CC1 (centres unmarked)    48.7

Read the next record carefully.
*Q* What does the data say about its inhibition at 1 µM? Entry: CCCCCCCC/C=C\CCCCCCCC(=O)NC[C@H]1CCCN1C(=O)CCNC(=O)C1OC(C)(C)OCC1(C)C (some centres unmarked)
*A* 64

###

Target: acyl CoA-cholesterol-acyltransferase (ACAT) (Rattus norvegicus)
Sequence (Q7TQM4 1-524): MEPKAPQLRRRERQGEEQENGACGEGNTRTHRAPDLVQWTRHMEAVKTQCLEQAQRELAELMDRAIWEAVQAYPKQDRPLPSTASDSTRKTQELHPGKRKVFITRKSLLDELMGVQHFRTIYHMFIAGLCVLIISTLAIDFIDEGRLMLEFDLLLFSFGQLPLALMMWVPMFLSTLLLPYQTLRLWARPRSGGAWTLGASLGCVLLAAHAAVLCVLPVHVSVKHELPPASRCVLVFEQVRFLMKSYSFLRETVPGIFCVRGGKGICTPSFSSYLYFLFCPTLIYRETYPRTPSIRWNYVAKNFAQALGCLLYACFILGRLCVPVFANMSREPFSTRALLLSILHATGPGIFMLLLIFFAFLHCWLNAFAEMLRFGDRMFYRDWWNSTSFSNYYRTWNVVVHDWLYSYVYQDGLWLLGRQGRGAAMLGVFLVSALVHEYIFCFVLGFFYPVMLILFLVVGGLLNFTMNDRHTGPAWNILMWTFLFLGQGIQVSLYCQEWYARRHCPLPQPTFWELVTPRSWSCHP
measurement kind: pIC50
Answers are plain numbers, as −log10 of the molar value.

# annotated cases, reported pIC50 shown
CCCCCCCC/C=C\CCCCCCCC(=O)NCCCCCCOC(=O)CCNC(=O)C1OC(C)(C)OCC1(C)C (stereo not drawn)    6.41
CCCCCCCC/C=C\CCCCCCCC(=O)Nc1ccccc1NC(=O)CCNC(=O)C(OC(C)=O)C(C)(C)COC(C)=O (stereo not drawn)    6.56
CCCCCCCC/C=C\CCCCCCCC(=O)N[C@@H]1CCCC[C@H]1OC(=O)CCNC(=O)C1OC(C)(C)OCC1(C)C (stereo partly drawn)    6.68
CCCCCCCC/C=C\CCCCCCCC(=O)NCCCCCOC(=O)CCNC(=O)C1OC(C)(C)OCC1(C)C (stereo not drawn)    6.45
CCCCCCCC/C=C\CCCCCCCC(=O)Nc1ccccc1NC(=O)CCNC(=O)C1OC(C)(C)OCC1(C)C (stereo not drawn)    6.53

Read the next record carefully.
*Q* What does the data say about its pIC50? Entry: CCCCCCCC/C=C\CCCCCCCC(=O)NCCCOC(=O)CCNC(=O)C1OC(C)(C)OCC1(C)C (stereo not drawn)
*A* 6.60
